Let's look at some Ki data for Vascular endothelial growth factor receptor 3 (Homo sapiens, UniProt P35916) that I collected from the literature.
experimental-readout: Ki

>>> df
                              record_smiles       result
0           c1cncc(CNc2ccnc3oc4ccccc4c23)c1    > 1000 µM
1  Cc1[nH]c(/C=C2\C(=O)Nc3ccc(F)cc32)c(C)c1NC(=O)CCN1CCN(C)CC1  < 0.0003 µM
2  CNCc1ccc(-c2cc(-c3nc(-c4ccc(S(=O)(=O)C(C)C)cc4)cnc3N)on2)cc1     0.008 µM
3         COc1ccc(CNc2ccnc3oc4ccccc4c23)cc1    > 1000 µM
4         Clc1cccc(CNc2ccnc3oc4ccccc4c23)c1    > 1000 µM
